# credit: patent US20110008841A1

# measurement.target: T1, cynomolgus IL-17RA on cells (cynomolgus)
# T1 construct: whole, on cells; also called CHO-cynoIL-17RA; cyno IL-17RA+ CHO cells
# experimental.details: FACS, biotin-huIL-17A on cyno IL-17RA+ cells with non-clonal supernatant; lower = more inhibition
Readings of MFI for the listed binders
Enter the number alone.

Guide cases for MFI, answers given:
binder	MFI
AMH1/AML1 (antibody, IgG2, V domains shown, Fully human mAb from IgG2 XenoMouse mice; also called AM-1; antibody H) VH: QVQLQESGPGLVKPSETLSLTCTVSGGSISNYYWNWIRQSPGKGLEWIGDIYYSGSTNYNPSLKSRVTISVDTSKNQFSLKLSSVTTADTAVYYCARDGELANYYGSGSYQFYYYYGMDVWGQGTTVTVSS VL: DILMTQSPSSLSASVGDRVTITCRASQGIRNDLGWYQQKPGKAPKRLIYAASSLQSGVPSRFSGSGSGTEFTLTISSLQPEDFATYYCLQHNSNPFTFGPGTKVDIK	11
AMH11/AML11 (antibody, IgG2, V domains shown, Fully human mAb from IgG2 XenoMouse mice; also called AM-11; antibody A) VH: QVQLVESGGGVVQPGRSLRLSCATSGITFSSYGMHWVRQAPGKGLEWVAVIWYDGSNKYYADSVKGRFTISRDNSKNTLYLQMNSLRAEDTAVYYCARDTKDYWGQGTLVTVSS VL: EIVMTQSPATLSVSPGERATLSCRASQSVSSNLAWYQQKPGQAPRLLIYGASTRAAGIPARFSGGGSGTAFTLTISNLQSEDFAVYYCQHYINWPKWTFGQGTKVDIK	9

Req: Which MFI is listed for AMH5/AML5 (antibody, V domains shown, also called AM-5) VH: QVQLQESGPGLVKPSETLPLTCTVSGGSIRSYYWSWIRQPAGKGLEWIGRIYRSGNTIYNPSLKSRVTMSIDTSKNQFSLTLSSVTAADTAVYYCARENYSESSGLYYYYGMDVWGQGTTVTVSS VL: DIQMTQSPSSLSASVGDRVTITCRASQGIRNDLGWYQQKPGKAPKRLIYAASSFQSGVPSRFSGSGSGTGFTLTISSLQPEDFATYYCLQHNSYPPTFGQGTKVEIK ?
Resp: 9

Req: Which MFI is listed for AMH22/AML22 (antibody, IgG2, V domains shown, Fully human mAb from IgG2 XenoMouse mice; also called AM-22; antibody I) VH: QVQLVQSGAEVKKPGASVKVSCKASGYTFTRYGISWVRQAPGQGLEWMGWISAYSGNTNYAQKLQGRVTMTTDTSTSTAYMELRSLRSDDTAVYYCARRQLYFDYWGQGTLVTVSS VL: EIVMTQSPATLSVSPGERVTLSCRASQSVSSNLAWFQQKPGQAPRPLIYDASTRAAGIPARFSGSGSGTDFTLTISSLQSEDFAVYYCQQYDNWPLTFGGGTKVEIK ?
Resp: 18
